Protocol text: Acute toxicity (LD50)
Measurement setup: in vivo; species and route not given
Attribute measured: LD50 (mg/kg)
Give a bare numeral; the unit mg/kg is implied.

Item: C=C(C)C12CC(COC(=O)c3ccccc3)C34OC5(OC1C3C1OC1(CO)C(O)C1(O)C(O)C(C)C(C(C)CCCCCCC5O)C14)O2 (single isomer, unassigned) | LD50: 5
